Target: D-3-phosphoglycerate dehydrogenase (Homo sapiens)
Test: Binding affinity to human PHGDH expressed in Escherichia coli BL21 incubated for 30 mins by MST assay
pKd: −log10 of the molar value.
reportedProperty: pKd

compound	reportedProperty	resultValue
COC(=O)[C@H](C)N1Cc2c(O)c(O)c(O)c(C)c2C1=O	pKd	4.82

* * *

Target: D-3-phosphoglycerate dehydrogenase (Homo sapiens, UniProt O43175)
Sequence (O43175 whole entry): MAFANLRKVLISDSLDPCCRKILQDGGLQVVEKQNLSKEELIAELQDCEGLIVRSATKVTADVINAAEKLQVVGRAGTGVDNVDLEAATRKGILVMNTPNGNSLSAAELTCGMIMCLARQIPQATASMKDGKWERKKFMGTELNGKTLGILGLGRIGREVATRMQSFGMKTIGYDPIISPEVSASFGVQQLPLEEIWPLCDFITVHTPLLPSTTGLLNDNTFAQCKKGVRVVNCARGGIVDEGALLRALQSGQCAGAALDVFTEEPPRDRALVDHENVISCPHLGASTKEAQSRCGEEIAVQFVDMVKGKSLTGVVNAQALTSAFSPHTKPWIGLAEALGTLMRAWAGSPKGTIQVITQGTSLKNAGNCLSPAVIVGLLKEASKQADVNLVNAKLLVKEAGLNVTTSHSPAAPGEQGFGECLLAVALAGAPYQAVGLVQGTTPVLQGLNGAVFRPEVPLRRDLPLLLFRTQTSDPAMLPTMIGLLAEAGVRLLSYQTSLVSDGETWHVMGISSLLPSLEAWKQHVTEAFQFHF
Test: Inhibition of human PHGDH expressed in Escherichia coli BL21 using 3-PG as substrate incubated for 30 mins by fluorescence based analysis
Measured IC50, listed per entry.

molecule	IC50, µM
COC(=O)[C@H](C)N1Cc2c(O)c(O)c(O)c(C)c2C1=O	9.76
C[C@H]1C(=O)OC([C@@H](O)[C@](C)(O)C2[C@@H](O)CC3C4C[C@H]5O[C@]56[C@@H](O)C=CC(=O)[C@]6(C)C4CC[C@@]32C)[C@@H]1C (some centres not stated)	1.66

* * *

This listing pairs molecules with measured pIC50.
Target: D-3-phosphoglycerate dehydrogenase (Homo sapiens, UniProt O43175)
Assay: Inhibition of human PHGDH by fluorescence based analysis
pIC50: −log10 of the molar value.
reportedProperty: pIC50

molecule	targetOrTestSystem	modifier	resultValue
CCN(CC)C(=S)CSC(=S)N(CC)CC	D-3-phosphoglycerate dehydrogenase (Homo sapiens, UniProt O43175)	=	4.44
S=C(SSC(=S)N1CCCCC1)N1CCCCC1 [BIS(PIPERIDINYLTHIOCARBONYL)DISULFIDE]	D-3-phosphoglycerate dehydrogenase (Homo sapiens, UniProt O43175)	=	6.29
CN1CCN(C(=S)SSC(=S)N2CCN(C)CC2)CC1	D-3-phosphoglycerate dehydrogenase (Homo sapiens, UniProt O43175)	=	6.77
S=C(SSC(=S)N1CCc2ccccc2C1)N1CCc2ccccc2C1	D-3-phosphoglycerate dehydrogenase (Homo sapiens, UniProt O43175)	=	6.42
S=C(SSC(=S)N(C1CCCCC1)C1CCCCC1)N(C1CCCCC1)C1CCCCC1	D-3-phosphoglycerate dehydrogenase (Homo sapiens, UniProt O43175)	=	5.86
S=C(SSC(=S)N1CCN(c2ccccc2)CC1)N1CCN(c2ccccc2)CC1	D-3-phosphoglycerate dehydrogenase (Homo sapiens, UniProt O43175)	=	6.39
S=C(SSC(=S)N1CCN(Cc2ccccc2)CC1)N1CCN(Cc2ccccc2)CC1	D-3-phosphoglycerate dehydrogenase (Homo sapiens, UniProt O43175)	=	4.65
S=C(SSC(=S)N1CCN(C2CCCCC2)CC1)N1CCN(C2CCCCC2)CC1	D-3-phosphoglycerate dehydrogenase (Homo sapiens, UniProt O43175)	=	6.24
CC1CCN(C(=S)SSC(=S)N2CCC(C)CC2)CC1	D-3-phosphoglycerate dehydrogenase (Homo sapiens, UniProt O43175)	=	6.24
CN(C(=S)SSC(=S)N(C)C1CCCCC1)C1CCCCC1	D-3-phosphoglycerate dehydrogenase (Homo sapiens, UniProt O43175)	=	6.00
CN(C(=S)SSC(=S)N(C)c1ccccc1)c1ccccc1	D-3-phosphoglycerate dehydrogenase (Homo sapiens, UniProt O43175)	=	6.38
CCN(CC)C(=S)SCSC(=S)N(CC)CC	D-3-phosphoglycerate dehydrogenase (Homo sapiens, UniProt O43175)	=	4.34
CN1CCN(C(=S)SCSC(=S)N2CCNCC2)CC1	D-3-phosphoglycerate dehydrogenase (Homo sapiens, UniProt O43175)	=	4.17
S=C(Nc1ccccc1)SSC(=S)Nc1ccccc1	D-3-phosphoglycerate dehydrogenase (Homo sapiens, UniProt O43175)	=	6.44
S=C(SSC(=S)N1CCSCC1)N1CCSCC1	D-3-phosphoglycerate dehydrogenase (Homo sapiens, UniProt O43175)	=	6.47
S=C(SSC(=S)N1CCOCC1)N1CCOCC1	D-3-phosphoglycerate dehydrogenase (Homo sapiens, UniProt O43175)	=	6.68
CCN(CC)C(=O)CSC(=S)N(CC)CC	D-3-phosphoglycerate dehydrogenase (Homo sapiens, UniProt O43175)	<	3.00
CC1CCC(C)N1C(=S)SSC(=S)N1C(C)CCC1C (stereo not drawn)	D-3-phosphoglycerate dehydrogenase (Homo sapiens, UniProt O43175)	=	6.38
